Molecular target: T1, his-tagged cTfR1 (Acro Biosystems p/n TFR-C524a) (cynomolgus monkey, UniProt H9EXL1 89-760 (rhesus entry))
T1 construct: Bought reagent of the SPR assay
T1 sequence (chain, as listed by the source): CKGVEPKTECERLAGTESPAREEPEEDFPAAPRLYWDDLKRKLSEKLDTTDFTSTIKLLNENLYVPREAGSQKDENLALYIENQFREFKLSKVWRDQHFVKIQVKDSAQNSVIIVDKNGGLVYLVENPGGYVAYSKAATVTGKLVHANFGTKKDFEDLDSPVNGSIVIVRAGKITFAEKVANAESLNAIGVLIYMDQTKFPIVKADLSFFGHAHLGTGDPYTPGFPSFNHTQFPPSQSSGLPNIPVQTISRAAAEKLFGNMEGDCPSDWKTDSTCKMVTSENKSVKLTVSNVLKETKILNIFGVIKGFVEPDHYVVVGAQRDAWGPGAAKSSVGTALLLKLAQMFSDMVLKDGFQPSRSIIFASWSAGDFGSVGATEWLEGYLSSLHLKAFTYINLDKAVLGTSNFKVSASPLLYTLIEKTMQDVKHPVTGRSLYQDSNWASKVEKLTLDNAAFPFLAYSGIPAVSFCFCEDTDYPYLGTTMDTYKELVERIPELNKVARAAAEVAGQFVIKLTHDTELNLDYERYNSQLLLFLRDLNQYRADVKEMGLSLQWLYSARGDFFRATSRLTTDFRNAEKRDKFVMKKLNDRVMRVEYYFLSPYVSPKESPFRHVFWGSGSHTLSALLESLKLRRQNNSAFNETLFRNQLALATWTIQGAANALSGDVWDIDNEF
Assay: SPR, Biacore X100, His-tagged TfR1 captured by anti-His
Reported Metric: Kd (nM)
Number only, in nM; omit the unit.

Take a look at these entries with their results.
>  <Binder>
Fab0065 (Fab, V domains shown) VH: EVQLVESGGGLVQPGGSLRLSCATSGYTFTSYWVHWVRQAPGKGLEWVAEINPTNGRSNYIEKFKSRITLSVDKSKSTVYLQMNSLRAEDTAVYYCARGTRAYHYWGQGTLVTVSS VL: DIQLTQSPSSLSASVGDRVTITCRASDNLYRNLAWYQQKPGKAPKLLIYDATKLASGVPSRFSGSGSGTDYTLTISSLQPEDFATYYCQHFWGTPLTFGQGTKVEIKR

>  <Unit Spec>
nM

>  <Kd>
1.45

$$$$
>  <Binder>
Fab0074 (Fab, V domains shown) VH: EVQLVESGGGLVQPGGSLRLSCATSGYTFKSYWMHWVRQAPGKGLEWVAEINPTNGRTNYIEKFKSRITLSVDKSKSTVYLQMNSLRAEDTAVYYCARGTRAYHYWGQGTLVTVSS VL: DIQLTQSPSSLSASVGDRVTITCRASDGLYSNLAWYQQKPGKAPKLLIYDAKNLASGVPSRFSGSGSGTDYTLTISSLQPEDFATYYCQHFWGTPLTFGQGTKVEIKR

>  <Unit Spec>
nM

>  <Kd>
4.31

$$$$
>  <Binder>
Fab0073 (Fab, V domains shown) VH: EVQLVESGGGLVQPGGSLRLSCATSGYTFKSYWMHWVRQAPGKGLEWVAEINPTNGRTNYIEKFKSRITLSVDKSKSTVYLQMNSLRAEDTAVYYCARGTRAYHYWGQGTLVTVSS VL: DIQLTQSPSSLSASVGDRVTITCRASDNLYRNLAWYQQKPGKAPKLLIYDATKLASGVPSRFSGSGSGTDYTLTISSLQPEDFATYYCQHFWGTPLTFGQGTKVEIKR

>  <Unit Spec>
nM

>  <Kd>
2.85

$$$$

*Q* What measured Kd goes with Fab0064 (Fab, V domains shown) VH: EVQLVESGGGLVQPGGSLRLSCATSGYTFTSYWMHWVRQAPGKGLEWVAEINPTNGRVNYIEKFKSRITLSVDKSKSTVYLQMNSLRAEDTAVYYCARGTRAYHYWGQGTLVTVSS VL: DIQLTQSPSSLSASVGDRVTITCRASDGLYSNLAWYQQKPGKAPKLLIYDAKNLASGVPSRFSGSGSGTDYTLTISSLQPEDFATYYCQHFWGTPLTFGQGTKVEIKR ?
*A* 2.45
